Could you please report measured TGI for the items listed next?
system: T-47D breast; assay: NCI tumour cell line growth inhibition, 48 h

> print(dat)
                               compound   test.system  assay.metric  measured
1  CN=C(N)/N=C(\N)Nc1cc2ccccc2c2ccccc12  T-47D breast           TGI   40.5 µM

Value sought for every listed compound: TGI.
1. C=C(C)[C@H]1C[C@@H]2O[C@@](O)(/C(C)=C\C(=O)/C=C(/C)C[C@H]3OC(=O)[C@@]24O[C@H]34)[C@@H]1O
2. O=C1N=NC(=O)N1c1cc(C(F)(F)F)cc(C(F)(F)F)c1
3. N#Cc1c(-c2cccc(Cl)c2)cc(-c2ccc(Cl)cc2)nc1N
4. CC(C)NC(=O)OCc1c(COC(=O)NC(C)C)c(-c2ccc(Cl)c(Cl)c2)n2c1CCC2
5. CC(C)(C)OC(=O)CC(NC(=O)OC(C)(C)C)C(=O)NC(C(=O)O)C(O)c1ccccc1 (stereo unspecified)

-- reply
1. > 100 µM
2. > 30.2 µM
3. > 100 µM
4. > 56.2 µM
5. > 100 µM

====

tested on: OVCAR-8 ovarian; experiment: NCI tumour cell line growth inhibition, 48 h
assay_metric: TGI (µM)
Answers are plain numbers, in µM.

Guide cases for TGI, answers given:
> print(dat)
                               smiles.entry      test.system  measured
1  C[C@]12CC[C@H]3[C@@H](CCC4=CC(=O)CC[C@@]43C)[C@@H]1CC[C@@H]2C(=O)Nc1ccc([N+](=O)[O-])c(C(F)(F)F)c1  OVCAR-8 ovarian      90.9
2  O=[N+]([O-])c1ccc(N/N=C(\c2ccccc2)c2ccccn2)nc1  OVCAR-8 ovarian      23.8
3      Cc1ccc2[nH]c3c(c2c1)CCC/C3=N/N=C(N)N  OVCAR-8 ovarian      4.49
4  C/C(=C\CCc1ccsc1)CC/C=C(\C)CCCN1CCC(CO)CC1  OVCAR-8 ovarian      12.8

Query compound follows.
-- ask Endpoint output: TGI of `O=C(NC1CCCCC1)NS(=O)(=O)c1ccc(-n2nc3c(c2-c2ccc(Cl)cc2)Cc2ccccc2-3)cc1` . Value?
-- reply 49.6

====

system: SNB-75 CNS; experiment: NCI tumour cell line growth inhibition, 48 h
assay_metric: TGI

Example cases with answers are listed next.
compound	test_system	TGI
COC(=O)C(Cc1c(C2Nc3ccccc3C2CC(NC(C)=O)C(=O)OC)[nH]c2ccccc12)NC(C)=O (stereo not given)	SNB-75 CNS	> 100 µM
CCOC(=O)N1CCN(c2nc(C)n(-c3ccccc3)c(=S)c2C#N)CC1	SNB-75 CNS	> 79.7 µM
CC1=NN(C(=O)CC(=O)Nc2cccc(C)c2)C(=O)C1N=Nc1ccc(S(=O)(=O)c2ccc(N=NC3C(=O)N(C(=O)CC(=O)Nc4cccc(C)c4)N=C3C)cc2)cc1 (stereo not given)	SNB-75 CNS	> 100 µM
CCOC(=O)N/N=C(\Cc1ccc([N+](=O)[O-])cc1)OCC	SNB-75 CNS	> 100 µM
C/C=C1/CN2CCC34c5ccccc5N(C)C23C2CC1C4(C(=O)OC)C(O)O2 (stereo not given)	SNB-75 CNS	> 100 µM
CSc1ccc(-c2cc(-c3nc4ccccc4[nH]3)nc(N)c2C#N)cc1	SNB-75 CNS	57.8 µM
CN(C)C1=NC2=S(SC(Nc3ccccc3)=N2)S1 (stereo not given)	SNB-75 CNS	60.6 µM
COC(=O)/C(=N\NC(=S)NN)C(C(=O)OC)C(=O)C(=O)Nc1cccc(C(F)(F)F)c1 (stereo not given)	SNB-75 CNS	> 100 µM

// for each compound below, give its TGI
1. Nc1cccc2c1C1=NNC(=O)CC1C2 (stereo not given)
2. Cc1sc(Nc2ccccc2[N+](=O)[O-])c(C#N)c1C

-- reply
1: > 100 µM; 2: 39.9 µM

====

test system: T-47D breast; assay: NCI tumour cell line growth inhibition, 48 h; in the data active = GI50 below about 0.43 µM; inactive = the rest
Hello, when you answer, please use one of the following outcomes: active, inactive

Some solved cases for reference:
> print(dat)
                                   compound  qualitative.label
1  Cc1sc(NC2=NC(=O)/C(=C\c3ccccc3)S2)nc1-c1nc(NC2=NC(=O)/C(=C\c3ccccc3)S2)sc1C           inactive
2  Cc1ccc(-c2nc(N)c(C#N)c3c2CCOc2c-3ccc3ccccc23)cc1           inactive
3  CCOC(=O)c1c(Cl)c2c(n1Cc1cccc(OC)c1)-c1oncc1CC2           inactive
4  O=C(NCCNc1nccc(-c2c(-c3ccc(F)cc3)nc3sccn23)n1)c1ccccc1           inactive

-- ask Recorded test call requested for `O=C1CC[C@H](c2ccc(O)c3c2C(=O)[C@@H]2O[C@@H]2C3=O)c2cccc(O)c21`
-- reply inactive

-- ask Would you mind telling me which call this test gave `CS(=O)(=O)c1ccc(Oc2cc(F)cc(C#N)c2)c2c1[C@H](O)C(F)(F)C2` ?
-- reply inactive

-- ask Outcome? `COc1ccc(-c2nn(-c3cccc(NC(=O)c4cccc(C(F)(F)F)c4)c3)cc2-c2ccncc2)cc1Cl`
-- reply inactive

-- ask What call does the record list for `N#C/C(=C1C=C/C(=N\O)C(Cl)=C\1)c1ccccc1` ?
-- reply inactive

-- ask What classification did `CCN(CC)CCCCNc1ncc2cc(-c3cc(OC)cc(OC)c3)c(NC(=O)NC(C)(C)C)nc2n1` end up with in this test?
-- reply inactive

-- ask I'd appreciate the recorded outcome for COc1cc(C2CC(c3ccccc3)=NN2C(C)=O)cc(OC)c1OC (stereo not given) from this test.
-- reply inactive

-- ask Which outcome was assigned to `O=C(NC1CCCCC1)NS(=O)(=O)c1ccc(-n2nc3c(c2-c2ccc(Cl)cc2)Cc2ccccc2-3)cc1` in this test?
-- reply inactive

-- ask Please state the recorded outcome for this compound: CC1OC(n2c3ccccc3c3c4c(c5c6ccccc6[nH]c5c32)C(=O)N(CCN2CCOCC2)C4=O)CC(O)C1O (stereo not given)
-- reply inactive

-- ask Hi team, can someone confirm the assay call for `COc1cc(/C=C2\C(=O)N(c3ccccc3)c3ccccc32)cc(OC)c1OC` ?
-- reply inactive

-- ask Record request — test call for `COc1ccc(-c2nc(N3CCOCC3)c3sc(CN(C)c4ncc(C(=O)NO)cn4)cc3n2)cn1`
-- reply active

-- ask Given `COc1cccc(Cn2c(-c3nonc3NC(C)=O)nc3ccccc32)c1` , state the outcome it received in this test.
-- reply inactive

====

test system: HL-60(TB) leukemia; assay: NCI tumour cell line growth inhibition, 48 h
Would you mind telling me the reported TGI of each entry?

> print(dat)
                                   compound  measured
1  CC(=O)C1=C(C)N2C(=NC3=C(CCc4ccccc43)C2c2cccc(Br)c2)S1 (stereo not given)  > 100 µM

I have 4 compounds here; please give me TGI for each one.
1. CC(=O)NC1C(OC2C(CO)OC(OCC3OC(n4ccc(N)nc4=O)C(O)C3O)C(NC(C)=O)C2O)OC(CO)C(O)C1O (stereo not given)
2. O=C(Nc1sccc1S(=O)(=O)c1ccc(Cl)cc1)c1ccccc1
3. COc1ccc(-c2nn(-c3cccc(NC(=O)c4cccc(C(F)(F)F)c4)c3)cc2-c2ccncc2)cc1Cl
4. COc1cc(C2CC(c3ccccc3)=NN2C(C)=O)cc(OC)c1OC (stereo not given)

-- reply
> 100 µM
> 100 µM
8.64 µM
> 31.7 µM

====

test system: A498 renal; test: NCI tumour cell line growth inhibition, 48 h
Would you mind telling me the reported GI50 of each entry?

> print(dat)
                                   compound  measured
1  COc1cc(/C=C2\C(=O)N(c3ccccc3)c3ccccc32)cc(OC)c1OC   18.1 µM

Below is a list of compounds. For each, state its recorded GI50.
1. COc1nc(N)nc2c1ncn2[C@@H]1O[C@H](CO)[C@@H](O)[C@@H]1O
2. CC(=O)OC1Oc2cc(C)c(C)cc2-c2oc(=O)c(-c3ccc(F)cc3)cc21 (centres undefined)

-- reply
> 100 µM
5.06 µM

-- ask What measured GI50 goes with `O=C(NC1CCCCC1)NS(=O)(=O)c1ccc(-n2nc3c(c2-c2ccc(Cl)cc2)Cc2ccccc2-3)cc1` ?
-- reply 18.5 µM

====

Give TGI for every item shown.
system: SNB-19 CNS; test: NCI tumour cell line growth inhibition, 48 h

The following molecules have reported results that may help.
> print(dat)
                                   molecule  assay.metric  measured
1  O=C(NC1CCCCC1)NS(=O)(=O)c1ccc(-n2nc3c(c2-c2ccc(Cl)cc2)Cc2ccccc2-3)cc1           TGI  > 100 µM
2  CNS(=O)(=O)c1ccc2[nH]c(O)c(C3=Nc4ccccc4C3=O)c2c1           TGI  > 100 µM
3        Cc1cc(O)c(C=NC(=S)c2ccccc2)c(=O)o1           TGI  > 100 µM
4  CCCC(=O)Nc1ccc2c(c1)CN1C(=O)c3ccccc3C1=N2           TGI  > 100 µM
5  Nc1ncnc2c1ncn2C1C=CC(COS(N)(=O)=O)C1 (stereo not given)           TGI  > 100 µM
6                O=Nc1sc(=N\O)/c(=N/O)sc1NO           TGI  > 100 µM

Dear colleague, could you please provide TGI for the molecules listed below?
1. O=C1/C(=C/c2ccc(Cl)cc2)N=C(c2ccccc2)N1c1nc2c(Cl)cc(Cl)cc2s1
2. Nc1ccc(-c2nc3ccccc3o2)cc1S
3. N=c1n(Cc2ccccc2)c(N)cc(=O)n1Cc1ccccc1
4. O=C1c2cc([N+](=O)[O-])cc3cc([N+](=O)[O-])cc(c23)C(=O)N1CCCNCCNCCCN1C(=O)c2cc([N+](=O)[O-])cc3cc([N+](=O)[O-])cc(c23)C1=O

-- reply
> 100 µM
81.3 µM
18.2 µM
> 23.3 µM
